# key: entry, value: IC50
- Test system: full length human vWF binding to lyophilized platelets
- experiment.summary: Full length human von Willebrand Factor platelet binding assay (FACS)
- Assay type: cell-based
- reported.conditions: 5 nM full length human vWF, lyophilized platelets, botrocetin; units in the cell: lower bound pM, upper bound nM; read-out: Inhibition of full length hVWF binding in FACS assay, IC50 range

molecule	IC50
AMX238.E9: DNA SELEX 2 aptamer clone (nucleic acid, DNA, backbone not given here, DNA SELEX 2 aptamer clone) DNA: CTACCTACGATCTGACTAGCGTGCAGTGCCCATCTTAGGCCGTGCGGTGCCTCCGTCACGCTTACTCTCATGTAGTTCC	772 to 6500 pM
AMX237.B11: DNA SELEX 2 aptamer clone (nucleic acid, DNA, backbone and methylation of C not given here, DNA SELEX 2 aptamer clone) DNA: CTACCTACGATCTGACTAGCTCCAGTGTTTTATCTAATAACCGTGCGGTGCCTCCGTGAGCTTACTCTCATGTAGTTCC	151 to 4800 pM
AMX238.D12: DNA SELEX 2 aptamer clone (nucleic acid, DNA, backbone and methylation of C not given here, DNA SELEX 2 aptamer clone) DNA: CTACCTACGATCTGACTAGCTCCAGTGTTTCATTCAATAACCGTGCGGTGCCTCCGTGAGCTTACTCTCATGTAGTTCC	684 to 3400 pM
AMX237.A11: DNA SELEX 2 aptamer clone (nucleic acid, DNA, backbone and methylation of C not given here, DNA SELEX 2 aptamer clone) CTACCTACGATCTGACTAGCTCCAGTGTTTTATCCAATAACCGTGCGGTGCCTCCGTGAGCTTACTCTCATGTAGTTCC	466 to 5600 pM

Data credit: patent US7998940B2
